Hey, just so you know, these numbers are from patent US9896441B2.

EC50 values, listed per item
Biological target: Gal4-RORγ-LBD (Homo sapiens, UniProt P51449)
Construct: expressed in transfected cells
Assay: Gal4-RORγ Luciferase Reporter Assay in HEK-293T Cells
Assay type: cell-based
Conditions: HEK-293 cells, luciferase reporter, with ursolic acid

Study these solved cases before continuing.
COc1cccc(Cl)c1/C=C/c1ccc2c(c1)N(S(=O)(=O)c1cccc(C(F)(F)F)c1)C[C@H](CCC(=O)O)O2 [Example 89EY] ... 500 to 5000 nM
N#Cc1cccnc1/C=C/c1ccc2c(c1)N(S(=O)(=O)c1cccc(C(F)(F)F)c1)C[C@H](CCC(=O)O)O2 [Example 89DL] ... 500 to 5000 nM
CCOc1nn2c(c1S(=O)(=O)N1C[C@H](CCC(=O)OC)Oc3ccc(/C=C(\C)c4c(F)cccc4Cl)cc31)CCCC2 ... 500 to 5000 nM

### Prompt Any idea what EC50 came out for C/C(=C\c1ccc2c(c1F)N(S(=O)(=O)c1cccc(OC(F)F)c1)C[C@H](CCC(=O)O)O2)c1c(F)cccc1Cl on Gal4-RORγ-LBD (Homo sapiens, UniProt P51449)?
### Response 500 to 5000 nM

### Prompt Record: COc1nn2c(c1S(=O)(=O)N1C[C@H](CCC(=O)O)Oc3ccc(/C=C(\C)c4c(F)cccc4Cl)cc31)CCCC2 [Example 86K]
### Response < 500 nM

### Prompt Record: COC(=O)CC[C@H]1CN(S(=O)(=O)c2cccc(OC(F)F)c2)c2cc(/C=C/c3ccccc3C(F)(F)F)ccc2O1 [Example 89AP]
### Response 500 to 5000 nM

###

Molecular target: Gal4-RORγ-LBD (Homo sapiens, UniProt P51449)
Construct: expressed in transfected cells
Sequence (P51449 269-508 limits assumed): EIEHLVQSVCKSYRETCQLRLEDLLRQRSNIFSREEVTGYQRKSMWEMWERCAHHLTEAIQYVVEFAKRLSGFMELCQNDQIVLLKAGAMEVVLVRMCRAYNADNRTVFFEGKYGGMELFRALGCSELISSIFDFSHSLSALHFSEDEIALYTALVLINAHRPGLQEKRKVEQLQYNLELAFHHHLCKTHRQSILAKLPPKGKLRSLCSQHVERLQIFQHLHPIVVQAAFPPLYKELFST
Assay: Gal4-RORγ Luciferase Reporter Assay in HEK-293T Cells
Format: cell-based
Details: HEK-293 cells, ursolic acid present, luciferase readout
EC50 values, listed per item

CC/C(=C\c1ccc2c(c1)N(S(=O)(=O)c1cc(C(F)(F)F)cnc1OCCO)C[C@H](CCC(=O)O)O2)C(C)C [Example 191E] ... 500 to 5000 nM

### Prompt Returns the measured EC50 for the input compound. Input: O=S(=O)(c1cccc(C(F)(F)F)c1)N1C[C@H](CCO)Oc2ccc(COc3c(F)cccc3Cl)cc21
### Response 500 to 5000 nM

### Prompt Record: COC(=O)CC[C@H]1CN(S(=O)(=O)c2cc(C3CC3)cnc2OCCO)c2cc(/C=C/c3c(F)cccc3Cl)ccc2O1 [Example 89FP]
### Response < 500 nM

### Prompt Record: O=C(O)CC[C@H]1CN(S(=O)(=O)c2cccc(C(F)(F)F)c2)c2cc(C3CCCCC3)ccc2O1
### Response < 500 nM

### Prompt Record: O=C(O)C1Cc2ccc(OCc3c(F)cccc3Cl)cc2N(S(=O)(=O)c2cccc(C(F)(F)F)c2)C1 (stereo not drawn)
### Response 500 to 5000 nM

### Prompt Record: COC(=O)CCC[C@H]1CN(S(=O)(=O)c2cccc(C(F)(F)F)c2)c2cc(/C=C/c3c(F)cccc3Cl)ccc2O1 [Example 195E]
### Response 500 to 5000 nM

### Prompt Record: CCC(=Cc1ccc2c(c1)N(S(=O)(=O)c1cccc(C(F)(F)F)c1)C[C@H](CCCC(=O)O)O2)CC [Example 195F]
### Response < 500 nM

### Prompt Record: C[C@H]1CN(S(=O)(=O)c2ccc(F)cc2)c2cc(COc3c(F)cccc3Cl)ccc2O1
### Response 5000 to 10000 nM

### Prompt Record: O=C(O)CCC[C@H]1CN(S(=O)(=O)c2cc(C(F)(F)F)cnc2OCCO)c2cc(/C=C/c3c(F)cccc3Cl)ccc2O1 [Example 195B]
### Response < 500 nM

### Prompt Record: CC/C(=C\c1ccc2c(c1)N(S(=O)(=O)c1cccc(C(F)(F)F)c1)C[C@H](CCC(=O)OC)O2)C(C)C [Example 191H]
### Response < 500 nM

### Prompt Record: CCOC(=O)[C@@H]1Cc2ccc(OCc3c(F)cccc3Cl)cc2N(S(=O)(=O)c2ccc(F)c(OC)c2)[C@@H]1C
### Response 500 to 5000 nM

### Prompt Record: CCOc1nn(CC)cc1S(=O)(=O)N1CC(C(=O)O)Cc2ccc(OCc3c(F)cccc3Cl)cc21 (stereo not drawn)
### Response > 10000 nM

### Prompt Record: O=C(O)CC[C@H]1CN(S(=O)(=O)c2cccc(C(F)(F)F)c2)c2cc(CCc3c(F)cccc3Cl)ccc2O1
### Response 500 to 5000 nM

### Prompt Record: CC/C(=C\c1ccc2c(c1)N(S(=O)(=O)c1cc(C(F)(F)F)cnc1OCCO)C[C@H](CCC(=O)OC)O2)C(C)C [Example 191F]
### Response 500 to 5000 nM

### Prompt Record: C/C(=C\c1ccc2c(c1)N(S(=O)(=O)c1cccc(C(F)(F)F)c1)C[C@H](CNC(=O)N1CCOCC1)O2)c1c(F)cccc1Cl [Example 116N]
### Response < 500 nM

### Prompt Record: COC(=O)CCC[C@H]1CN(S(=O)(=O)c2cc(C(F)(F)F)cnc2OCCO)c2cc(/C=C/c3c(F)cccc3Cl)ccc2O1 [Example 195C]
### Response 500 to 5000 nM
